# ASSAY EXPLANATION: Cytotoxicity against mock-infected human MT4 cells after 5 days by MTT assay
# Format: cell-based
For each entry below, report its CC50 at 120 h value.

See these solved cases before continuing.
RECORD SMILES	CC50 at 120 h
CC(C)n1cc(C(=O)O)c(=O)c2ccc(Oc3ccnc(Nc4ccc(C#N)cc4)n3)cc21	> 283 µM
O=C1Nc2ccc(Cl)cc2[C@@](C#CC2CC2)(C(F)(F)F)O1	> 6.5 µM

# input molecule: N#Cc1ccc(Nc2nccc(Oc3ccc4c(=O)c(C(=O)O)cn(C5CC5)c4c3)n2)cc1 ; wanted: its CC50 at 120 h
≥ 221 µM

====

# ASSAY EXPLANATION: Cytotoxicity against mock-infected human MT4 cells after 5 days by MTT assay
# Format: cell-based
MEASURED ENDPOINT: CC50 at 120 h

See these solved cases before continuing.
COMPOUND	MEASURED ENDPOINT	VALUE
CCCCn1cc(C(=O)O)c(=O)c2ccc(Oc3ccnc(Nc4ccc(C#N)cc4)n3)cc21	CC50 at 120 h	≥ 199 µM
Cc1cn([C@H]2C[C@H](N=[N+]=[N-])[C@@H](CO)O2)c(=O)[nH]c1=O [ZIDOVUDINE]	CC50 at 120 h	> 94 µM
Cc1ccnc2c1NC(=O)c1cccnc1N2C1CC1 [NEVIRAPINE]	CC50 at 120 h	> 15 µM
CCC(C)n1cc(C(=O)O)c(=O)c2ccc(Oc3ccnc(Nc4ccc(C#N)cc4)n3)cc21 (stereo not given)	CC50 at 120 h	> 274 µM

Now consider a different compound.
# input compound: CC(C)Cn1cc(C(=O)O)c(=O)c2ccc(Oc3ccnc(Nc4ccc(C#N)cc4)n3)cc21 ; wanted: its CC50 at 120 h
> 274 µM
